Data provenance: patent US10343977B2

- System: LPS-mediated MIP-1α production in THP-1 cells
- protocol_summary: LPS-mediated MIP-1α production in THP-1 cells
- Assay type: cell-based
- condition_description: Homo sapiens; 12.5 μM test compound; THP-1 cells, LPS 1 μg/ml; NI = no inhibition
Classification field: Y = inhibition at 12.5 µM at or over 60%; N = inhibition at 12.5 µM under 60%.

• CC(C)CCC(=O)[C@@]1(O)C(=O)/C(=C(\CC(C)C)NCCO)C(=O)[C@@H]1CCC(C)C [KDT0017] = N
• CC(C)CCC(=O)[C@@]1(O)C(=O)/C(=C(\CC(C)C)NCc2ccccc2)C(=O)[C@@H]1CCC(C)C [KDT0024] = N
• CO/N=C(/CC(C)C)C1=C(O)[C@](O)(/C(CCC(C)C)=N/OC)[C@@H](CCC(C)C)C1=O [KDT0001/2] = N

Item CC(C)CCC(=O)[C@@]1(O)C([O-])=C(C(=O)CC(C)C)C(=O)[C@@H]1CCC(C)C.[K+] (stereo in doubt) [KDT501, Potassium salt of (+)-KDT500] with inhibition at 12.5 µM of 60% or above? Y

Item CC(C)CCC(=O)[C@@]1(OC(=O)OCC(C)C)C(O)=C(C(=O)C(C)C)C(=O)[C@@H]1CCC(C)C [KDT0037] with inhibition at 12.5 µM of 60% or above? N

Item CC(C)CCC(=O)[C@@]1(OC(=O)CC(C)(C)C)C(O)=C(C(=O)CC(C)C)C(=O)[C@@H]1CCC(C)C [KDT0034] with inhibition at 12.5 µM of 60% or above? Y

Item CCCCCCCCCC(=O)O[C@]1(C(=O)CCC(C)C)C(O)=C(C(=O)C(C)C)C(=O)[C@@H]1CCC(C)C [KDT0036] with inhibition at 12.5 µM of 60% or above? N
